Recorded values, source ChEMBL document CHEMBL1156503.

List of Intrinsic activity values.
target: c-Jun N-terminal kinase, JNK (Homo sapiens, UniProt P45983+P53779+P45984); experiment: Increase of JNK phosphorylation in U50488 treated HEK293 cells expressing GFP tagged kappa opioid receptor relative to U50,488; assay type: cell-based
assay endpoint: Intrinsic activity

• CC(C)[C@@H](CN1CC[C@@](C)(c2cccc(O)c2)[C@@H](C)C1)NC(=O)[C@H]1Cc2ccc(O)cc2CN1 [JDTIC] = 0.57
• Oc1ccc2c3c1O[C@H]1c4[nH]c5c(c4C[C@@]4(O)[C@@H](C2)N(CC2CC2)CC[C@]314)C[C@@]1(O)[C@H]2Cc3ccc(O)c4c3[C@@]1(CCN2CC1CC1)[C@H]5O4 [NORBINALTORPHIMINE] = 0.84
• CC(C)C[C@H](NC(=O)[C@H](Cc1ccccc1)NC(=O)CNC(=O)CNC(=O)[C@@H](N)Cc1ccc(O)cc1)C(=O)N[C@@H](CCCNC(=N)N)C(=O)N[C@@H](CCCNC(=N)N)C(=O)N[C@@H](CCC(N)=O)C(=O)N[C@@H](Cc1ccccc1)C(=O)N[C@@H](CCCCN)C(=O)N[C@H](C(=O)N[C@H](C(=O)N[C@H](C(=O)O)[C@@H](C)O)C(C)C)C(C)C [DYNORPHIN B] = 0.61
